# credit: patent US20030148956A1

Reported CRF1R EC50 values follow for various binders
- System name: CRF1R
- Assay explanation: cell-based or functional assay
Ends that are not written are not given here.
Endpoint: CRF1R EC50

- ZGPPISIDLPTTLLRKMIEIEKQEKEKQQAANNRLLLDTI (C-terminal amide) [SEQ ID NO 42]: > 1000 nM
- IVLSLDVPIGLLQILLEQAKQEAAREQATTNARILARV-NH2 [SEQ ID NO 124]: > 100 nM
- ZGPPISIDLPWYLLRKMIEIEKQEKEKQQAANNRLLLDTI (C-terminal amide) [SEQ ID NO 55]: 11.6 nM
- IVLSLDVPIGLLQILLEQERARAAREQATTNARILARV-NH2 [SEQ ID NO 119]: > 100 nM
- IVLSLDVPIGLLQILLEQARQRAAREQATTNARILARV-NH2 [SEQ ID NO 114]: > 100 nM
- IVLSLDVPIGLLQILLEQRRAAREQATTNARILARV-NH2 [SEQ ID NO 133]: > 100 nM
- DNPSLSIDLPLFLLRTLLELARTQSQRERAEQNAIIFASV-NH2 [SEQ ID NO 178]: 1000 nM
- SQEPPISLDLTIGLLREVLEMTKADQLAQQAHSNRKLLDIA-NH2 [SEQ ID NO 86]: 100 nM
- IVLSLDVPIGLLQILLEQARARAAREQATSNRKLMEII-NH2 [SEQ ID NO 163]: > 100 nM
- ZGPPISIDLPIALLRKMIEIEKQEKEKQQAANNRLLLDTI (C-terminal amide) [SEQ ID NO 47]: 1000 nM
- ZGPPISIDLPIRLLRKMIEIEKQEKEKQQAANNRLLLDTI (C-terminal amide) [SEQ ID NO 38]: > 1000 nM
- ZGPPISIDLPTNLLRKMIEIEKQEKEKQQAANNRLLLDTI (C-terminal amide) [SEQ ID NO 59]: > 100 nM
